# assay target: recombinant human DPPI (Cathepsin C) (Homo sapiens (Human), UniProt P53634)
# Sequence (P53634 231-394): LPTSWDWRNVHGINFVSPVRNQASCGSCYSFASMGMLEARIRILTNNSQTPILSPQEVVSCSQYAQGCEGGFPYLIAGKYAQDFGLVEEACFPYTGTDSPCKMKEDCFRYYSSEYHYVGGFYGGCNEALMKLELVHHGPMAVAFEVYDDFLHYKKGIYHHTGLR
# Sequence (P53634 395-463): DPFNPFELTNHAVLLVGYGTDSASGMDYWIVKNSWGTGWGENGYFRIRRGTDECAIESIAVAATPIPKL
# Sequence (P53634 25-134): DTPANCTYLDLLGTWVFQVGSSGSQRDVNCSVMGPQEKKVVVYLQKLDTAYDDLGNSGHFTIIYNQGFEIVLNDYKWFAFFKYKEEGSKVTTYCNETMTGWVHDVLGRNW
# experiment description: Inhibition of human DPPI (Cathepsin C)
# Type: biochemical
# condition description: substrate Gly-Arg-AMC
Recorded measurements of IC50, one per entry
measured parameter: IC50 (nM)

• N#C[C@H](Cc1ccc(-c2cn[nH]c2)cc1F)NC(=O)[C@H]1N[C@@H]2CC[C@H]1C2 = 9.9
• CO[C@@H]1C[C@@H]2CN(c3ccc(C[C@@H](C#N)NC(=O)[C@H]4N[C@@H]5CC[C@H]4C5)c(F)c3)CCN2C1 = 9.4
• CS(=O)(=O)c1cccc(-c2ccc(C[C@@H](C#N)NC(=O)[C@H]3N[C@H]4C[C@@H]3[C@@H]3C[C@@H]34)c(F)c2)c1 = 26.3
• CNc1nc2cc(-c3ccc(C[C@@H](C#N)NC(=O)[C@H]4N[C@@H]5CC[C@H]4C5)c(F)c3)ccc2[nH]1 = 8.5
• N#C[C@H](Cc1ccc(N2CCN(C3CC3)CC2)cc1F)NC(=O)[C@H]1N[C@@H]2CC[C@H]1C2 = 9.8
• COCCN1CCC(c2ccc(C[C@@H](C#N)NC(=O)[C@H]3N[C@@H]4CC[C@H]3C4)c(F)c2)C1 (some centres unmarked) = 38.6
• N#C[C@H](Cc1ccc(-c2cccc(S(=O)(=O)C3CC3)c2)cc1F)NC(=O)[C@H]1N[C@@H]2CC[C@H]1C2 = 3.8
• CN(C)C(=O)c1ccc(-c2ccc(C[C@@H](C#N)NC(=O)[C@H]3N[C@@H]4CC[C@H]3C4)c(F)c2)cc1 = 61.1
• CS(=O)(=O)c1ccc(-c2ccc(C[C@@H](C#N)NC(=O)[C@H]3N[C@@H]4CC[C@H]3C4)c(F)c2)cc1 = 2.6
• CN1C(=O)Cc2ccc(-c3ccc(C[C@@H](C#N)NC(=O)[C@H]4N[C@@H]5CC[C@H]4C5)c(F)c3F)cc21 = 3.7
• COCCOCc1cn(-c2ccc(C[C@@H](C#N)NC(=O)[C@H]3N[C@@H]4CC[C@H]3C4)c(F)c2)nn1 = 33.3
• N#CC(Cc1ccc(-c2ccc(S(N)(=O)=O)cc2)cc1F)NC(=O)[C@H]1N[C@@H]2CC[C@H]1C2 (some centres unmarked) = 8.3
• N#C[C@H](Cc1ccc(-c2ccc(C(N)=O)s2)cc1F)NC(=O)[C@H]1N[C@@H]2CC[C@H]1C2 = 1.6
• N#CC(Cc1cc2c(=O)[nH]c3ccc(F)cc3c2cc1F)NC(=O)[C@H]1N[C@@H]2CC[C@H]1C2 (some centres unmarked) = 2.1

---

# assay target: recombinant human DPPI (Cathepsin C) (Homo sapiens (Human), UniProt P53634)
# experiment description: Inhibition of human DPPI (Cathepsin C)
# condition description: substrate Gly-Arg-AMC
Response field label: string, one of MET (IC50 strictly below 9 nM) or NOT MET.

- N#C[C@H](Cc1ccc(-c2cnn(C[C@@H]3CCOC3)c2)cc1F)NC(=O)[C@H]1N[C@@H]2CC[C@H]1C2: MET
- CC(C)Cn1cc(-c2ccc(C[C@@H](C#N)NC(=O)[C@H]3N[C@@H]4CC[C@H]3C4)c(F)c2)cn1: NOT MET
- N#C[C@H](Cc1ccc(-c2ccc3c(c2)NC(=O)C3)cc1F)NC(=O)[C@H]1N[C@@H]2CC[C@H]1C2: MET
- N#Cc1cc(F)c2[nH]c(=O)c3cc(C[C@@H](C#N)NC(=O)[C@H]4N[C@@H]5CC[C@H]4C5)c(F)cc3c2c1: MET
- N#C[C@H](Cc1cc2c(=O)[nH]c3ccccc3c2cc1F)NC(=O)[C@H]1N[C@@H]2CC[C@H]1C2: MET
- N#C[C@H](Cc1ccc(C2=CC3COCCN3CC2)cc1F)NC(=O)[C@H]1N[C@@H]2CC[C@H]1C2 (stereo partly drawn): MET
- Cn1ccc(-c2ccc(C[C@@H](C#N)NC(=O)[C@H]3N[C@@H]4CC[C@H]3C4)c(F)c2)cc1=O: NOT MET
- Cc1noc(C)c1-c1ccc(C[C@@H](C#N)NC(=O)[C@H]2N[C@@H]3CC[C@H]2C3)c(F)c1: NOT MET
- N#C[C@H](Cc1ccc(N2CCC3CN(C4CCOC4)CC32)cc1F)NC(=O)[C@H]1N[C@@H]2CC[C@H]1C2 (stereo partly drawn): MET
- N#C[C@H](Cc1ccc(-c2ccc(Cl)nc2)cc1F)NC(=O)[C@H]1N[C@H]2C[C@@H]1[C@@H]1C[C@@H]12: NOT MET
- CN1CCO[C@@H]2CN(c3ccc(C[C@@H](C#N)NC(=O)[C@H]4N[C@@H]5CC[C@H]4C5)c(F)c3)C[C@@H]21: NOT MET
- CC(C)OCc1cn(-c2ccc(C[C@@H](C#N)NC(=O)[C@H]3N[C@@H]4CC[C@H]3C4)c(F)c2)nn1: NOT MET
- Cn1c(=O)c2cc(CC(C#N)NC(=O)[C@H]3N[C@@H]4CC[C@H]3C4)ccc2c2ccc(C#N)cc21 (stereo partly drawn): MET
- N#C[C@H](Cc1ccc(-c2ccc3c(c2)C(=O)OC3)cc1F)NC(=O)[C@H]1N[C@@H]2CC[C@H]1C2: MET
- Cn1cc(-c2ccc(C[C@@H](C#N)NC(=O)[C@H]3N[C@@H]4CC[C@H]3C4)c(F)c2)cn1: MET
- N#C[C@H](Cc1ccc(-n2cc(COc3ccccc3)nn2)cc1F)NC(=O)[C@H]1N[C@@H]2CC[C@H]1C2: MET
- N#CC(Cc1ccc(-c2ccc3c(c2)CC(=O)N3)cc1F)NC(=O)[C@H]1N[C@@H]2CC[C@H]1C2 (stereo partly drawn): NOT MET
- CCC(O)Cc1cn(-c2ccc(C[C@@H](C#N)NC(=O)[C@H]3N[C@@H]4CC[C@H]3C4)c(F)c2)nn1 (stereo partly drawn): NOT MET
- N#CC(Cc1ccc(-c2ccc3c(c2)CCNC3=O)cc1F)NC(=O)[C@H]1N[C@@H]2CC[C@H]1C2 (stereo partly drawn): MET
- N#CC(Cc1ccc2c(c1)c(=O)[nH]c1ccccc12)NC(=O)[C@H]1N[C@@H]2CC[C@H]1C2 (stereo partly drawn): NOT MET
- N#C[C@H](Cc1ccc(-c2ccc(S(=O)(=O)N3CCCCC3)cc2)cc1F)NC(=O)[C@H]1N[C@@H]2CC[C@H]1C2: MET
- CN(C)CCN1C(=O)Cc2cc(-c3ccc(C[C@@H](C#N)NC(=O)[C@H]4N[C@@H]5CC[C@H]4C5)c(F)c3)ccc21: MET
- CS(=O)(=O)c1ccc(-c2ccc(C[C@@H](C#N)NC(=O)[C@H]3N[C@H]4C[C@@H]3[C@@H]3C[C@@H]34)c(F)c2)cc1: NOT MET
- N#C[C@H](Cc1ccc(-n2cc(C3CC3)nn2)cc1F)NC(=O)[C@H]1N[C@@H]2CC[C@H]1C2: NOT MET
- CC(=O)c1cn(-c2ccc(C[C@@H](C#N)NC(=O)[C@H]3N[C@@H]4CC[C@H]3C4)c(F)c2)nn1: NOT MET
- CC(C)C(O)Cc1cn(-c2ccc(C[C@@H](C#N)NC(=O)[C@H]3N[C@@H]4CC[C@H]3C4)c(F)c2)nn1 (stereo partly drawn): NOT MET
- N#C[C@H](Cc1ccc(N2CC3(CNC3)C2)cc1F)NC(=O)[C@H]1N[C@@H]2CC[C@H]1C2: MET

---

# assay target: recombinant human DPPI (Cathepsin C) (Homo sapiens (Human), UniProt P53634)
# experiment description: Inhibition of human DPPI (Cathepsin C)
# condition description: substrate Gly-Arg-AMC
measured parameter: log10 IC50 (log10 of the value in nM)

• N#C[C@H](Cc1cc2c(=O)[nH]c3c(F)c(F)ccc3c2cc1F)NC(=O)[C@H]1N[C@@H]2CC[C@H]1C2 = 0.00
• COCC(=O)n1cc(-c2ccc(C[C@@H](C#N)NC(=O)[C@H]3N[C@@H]4CC[C@H]3C4)c(F)c2)cn1 = 1.15
• N#C[C@H](Cc1ccc(OCc2ccccc2)cc1F)NC(=O)[C@H]1N[C@@H]2CC[C@H]1C2 = 1.31
• Cc1n[nH]cc1-c1ccc(CC(C#N)NC(=O)[C@H]2N[C@@H]3CC[C@H]2C3)c(F)c1 (stereo partly drawn) = 1.40
• N#C[C@H](Cc1ccc(N2CCN3CCC[C@H]3C2)cc1F)NC(=O)[C@H]1N[C@@H]2CC[C@H]1C2 = 0.80
• N#C[C@H](Cc1ccc(OCCN2CCNCC2)cc1F)NC(=O)[C@H]1N[C@@H]2CC[C@H]1C2 = 1.02
• CCS(=O)(=O)c1ccc(-c2ccc(C[C@@H](C#N)NC(=O)[C@H]3N[C@H]4C[C@@H]3[C@@H]3C[C@@H]34)c(F)c2)cc1 = 1.57
• N#CC(Cc1ccc(-c2ccc(Cl)nn2)cc1F)NC(=O)[C@H]1N[C@@H]2CC[C@H]1C2 (stereo partly drawn) = 1.42
• N#C[C@H](Cc1ccc(N2CCC3COCC3C2)cc1F)NC(=O)[C@H]1N[C@@H]2CC[C@H]1C2 (stereo partly drawn) = 1.24
• N#C[C@H](Cc1ccc(-c2ccc(C(=O)O)s2)cc1F)NC(=O)[C@H]1N[C@@H]2CC[C@H]1C2 = 1.58
• N#C[C@H](Cc1ccc(-c2cc[nH]c(=O)c2)cc1F)NC(=O)[C@H]1N[C@@H]2CC[C@H]1C2 = 1.60
• CS(=O)(=O)c1ccc2[nH]c(=O)c3cc(CC(C#N)NC(=O)[C@H]4N[C@@H]5CC[C@H]4C5)ccc3c2c1 (stereo partly drawn) = 1.13
